The measured values listed here are drawn from PubChem BioAssay.

Assay: splicing luciferase reporter signal modulators, primary screen, spliceosome inhibition project, cell-based, HEK293, splice +/- reporter (AID 1101);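 note: HEK293 cells carrying a splicing-competent luciferase reporter gene; test concentration not given here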
Conditions: luminescence, 24 h, higher = more signal, called active from +8 up or from −8 down

{"Compound": "O=C1[C@H]2[C@H]3[C@H](O)[C@H](O)CC(=NOC[C@@H](O)COCc4ccco4)[C@@H]3CC[C@H]2C(=O)N1Cc1ccccc1", "z-score": -0.153}
{"Compound": "COc1ccc(COC(=O)NN=C2C[C@@H](O)[C@@H](O)[C@@H]3[C@@H]4C(=O)N([C@@H](C)c5ccccc5)C(=O)[C@@H]4CC[C@@H]23)cc1", "z-score": 0.158}
{"Compound": "O=C1[C@H]2[C@H]3[C@H](O)[C@H](O)CC(=NOCc4ccccc4)[C@H]3CC[C@H]2C(=O)N1C1CCCCC1", "z-score": 0.395}
{"Compound": "CC(CCC(=O)OC[C@H]1O[C@H](C#Cc2ccccc2)C=C[C@@H]1Oc1ccc(C)cc1)=NO[C@@H](C)c1cc(-c2c(C)cc(C)cc2C)no1", "z-score": 0.0536}
{"Compound": "CC(=O)OC[C@H]1O[C@@H](ON=C2[C@H]3CCn4c(=O)n(-c5ccccc5)c(=O)n4[C@H]3[C@H](O)[C@@H]3O[C@H]23)[C@H](OC(C)=O)[C@@H](OC(C)=O)[C@@H]1OC(C)=O", "z-score": 0.764}
{"Compound": "CO[C@H]1COC(=O)CCC[C@H](C)[C@@H](OC)COC(=O)CC=C[C@@H]1C", "z-score": -1.05}
{"Compound": "COC(=O)CC=C[C@@H](C)[C@@H](C=NOC(C)CN1CCCCc2nc(C)c(C)cc21)NS(=O)(=O)c1ccc(C)cc1 (some centres not stated)", "z-score": -0.182}

###

z-score reference
Assay: osmotic lysis modulators in infected erythrocytes, primary screen, PSAC antagonist project, cell-based, P. falciparum Indochina, OD700, 3 h (AID 1156)
Conditions: higher = more signal, called active from +8 up or from −8 down

{"Compound": "CCOC(=O)[C@H](CC(C)C)NC(=O)CCC1CC(OC(=O)NCc2ccc3c(c2)OCO3)CC2(CCCC(COC(=O)NCCc3ccccc3OC)O2)O1 (stereo not given in full)", "z-score": -1.01}
{"Compound": "COc1ccc(COC(=O)NN=C2C[C@@H](O)[C@@H](O)[C@@H]3[C@@H]4C(=O)N([C@@H](C)c5ccccc5)C(=O)[C@@H]4CC[C@H]23)cc1", "z-score": -0.0805}
{"Compound": "COC(=O)CC=C1c2ccccc2[C@H](OC)[C@H]1C", "z-score": -0.0239}
{"Compound": "C[C@@H]1CC[C@H]2C(=O)O[C@@H](COc3ccc(C(C)(C)C)cc3)CN2[C@H]1c1ccc(Br)cc1", "z-score": -0.897}
{"Compound": "COc1ccc(COC(=O)NN=C2C[C@@H](O)[C@@H](O)[C@@H]3[C@@H]4C(=O)N(C[C@@H]5CCCO5)C(=O)[C@@H]4CC[C@@H]23)cc1", "z-score": 1.3}
{"Compound": "CCN(CC)CC(O)CN1CCCCc2nc(C)c(C)cc21 (stereo not given)", "z-score": 0.273}
{"Compound": "CCOC(=O)[C@H](Cc1ccccc1)NC(=O)CCC1CC(OC(=O)NCc2cccc3ccccc23)CC2(CCCC(COC(=O)NCCc3ccccc3OC)O2)O1 (stereo not given in full)", "z-score": -0.602}
{"Compound": "O=C(NN=C1C[C@@H](O)[C@@H](O)[C@@H]2[C@@H]3C(=O)N(Cc4ccccc4)C(=O)[C@@H]3CC[C@H]12)OCc1ccccc1", "z-score": -0.999}
{"Compound": "CC(C)CON=C1C[C@@H](O)[C@@H](O)[C@@H]2[C@@H]3C(=O)N([C@@H](C)c4ccccc4)C(=O)[C@@H]3CC[C@@H]12", "z-score": 0.181}
{"Compound": "COc1cccc([C@H]2Oc3ccc(OC)cc3C(=NOCC[C@@H]3C=C[C@H](OC(C)=O)[C@@H](COC(C)=O)O3)[C@@H]2O)c1", "z-score": -0.125}
{"Compound": "CCCNC(=O)OC[C@H]1O[C@H](CCON=C2C[C@@H](O)[C@@H](O)[C@@H]3[C@@H]4C(=O)N(CC)C(=O)[C@@H]4CC[C@@H]23)C=C[C@@H]1Oc1ccc(OC)cc1", "z-score": -0.0328}
{"Compound": "CO[C@H]1COC(=O)CCC[C@H](C)[C@H](OC)COC(=O)CC=C[C@@H]1C", "z-score": 0.232}
{"Compound": "CC(C)(C)N1C(=O)[C@H]2[C@H]3[C@H](O)[C@H](O)CC(=NNC(=O)OCc4ccccc4)[C@@H]3CC[C@H]2C1=O", "z-score": -0.279}
{"Compound": "CCOC(=O)[C@H](CC(C)C)NC(=O)CCC1CC(OC(=O)NCCc2ccc(F)cc2)CC2(CCCC(COC(=O)NCc3cccc(C(F)(F)F)c3)O2)O1 (stereo not given in full)", "z-score": 0.0716}
{"Compound": "CC(=O)OC[C@H]1O[C@H](CC=NO[C@H](C)c2cn([C@@H]3COC[C@H]3O)nn2)C=C[C@@H]1OC(C)=O", "z-score": -0.115}
